Conditions: human
value_type: WHO database: cases of serotonin syndrome, only suspected cause or among others

compound	observed
CC[C@@H](c1cccc(O)c1)[C@@H](C)CN(C)C	115
COc1cccc(C2(O)CCCCC2CN(C)C)c1 (centres unmarked)	647
CCC(=O)C(CC(C)N(C)C)(c1ccccc1)c1ccccc1 (centres unmarked)	93
CN1CC[C@]23c4c5ccc(O)c4O[C@H]2[C@@H](O)C=C[C@H]3[C@H]1C5	64
CN1CC[C@]23c4c5ccc(O)c4O[C@H]2C(=O)CC[C@@]3(O)[C@H]1C5	3
COc1ccc2c3c1O[C@H]1C(=O)CC[C@@]4(O)[C@@H](C2)N(C)CC[C@]314	101
COc1ccc(C(CN(C)C)C2(O)CCCCC2)cc1 (centres unmarked)	859
CNCC[C@H](Oc1cccc2ccccc12)c1cccs1	993
CN(C)CCCC1(c2ccc(F)cc2)OCc2cc(C#N)ccc21 (centres unmarked)	777
COc1ccc2c3c1O[C@H]1[C@@H](O)C=C[C@H]4[C@@H](C2)N(C)CC[C@@]341	32
CNCCC(Oc1ccc(C(F)(F)F)cc1)c1ccccc1 (centres unmarked)	641

----------
Target: human NET (Homo sapiens, UniProt P23975)
Sequence (P23975 whole entry): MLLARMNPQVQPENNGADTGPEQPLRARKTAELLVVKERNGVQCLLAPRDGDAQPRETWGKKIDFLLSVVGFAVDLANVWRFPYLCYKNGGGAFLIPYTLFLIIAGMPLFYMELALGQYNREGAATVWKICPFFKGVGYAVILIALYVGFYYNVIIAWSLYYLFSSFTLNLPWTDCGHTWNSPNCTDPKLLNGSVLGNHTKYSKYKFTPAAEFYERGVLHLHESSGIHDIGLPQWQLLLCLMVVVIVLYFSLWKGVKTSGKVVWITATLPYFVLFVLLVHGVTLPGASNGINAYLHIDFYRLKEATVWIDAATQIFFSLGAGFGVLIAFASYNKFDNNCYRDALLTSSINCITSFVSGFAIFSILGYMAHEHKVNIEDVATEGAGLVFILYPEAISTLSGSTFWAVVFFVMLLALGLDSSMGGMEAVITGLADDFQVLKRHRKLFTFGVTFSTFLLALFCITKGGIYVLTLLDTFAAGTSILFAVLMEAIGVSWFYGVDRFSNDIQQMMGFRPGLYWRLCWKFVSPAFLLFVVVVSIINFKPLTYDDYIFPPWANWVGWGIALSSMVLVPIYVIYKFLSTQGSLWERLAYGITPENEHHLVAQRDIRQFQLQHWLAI
Assay: cell-based
Type: cell-based
Quick list: IC50 per entry.

chemical_structure	IC50
COc1ccc2c3c1O[C@H]1C(=O)CC[C@@]4(O)[C@@H](C2)N(C)CC[C@]314	> 100 µM
COc1ccc2c3c1O[C@H]1[C@@H](O)C=C[C@H]4[C@@H](C2)N(C)CC[C@@]341	> 100 µM
CC(=O)Oc1ccc2c3c1O[C@H]1[C@@H](OC(C)=O)C=C[C@H]4[C@@H](C2)N(C)CC[C@@]341	> 100 µM
CC(=O)O[C@H]1C=C[C@H]2[C@H]3Cc4ccc(O)c5c4[C@@]2(CCN3C)[C@H]1O5	> 100 µM
CN1CC[C@]23c4c5ccc(O)c4O[C@H]2C(=O)CC[C@@]3(O)[C@H]1C5	> 100 µM
COc1ccc2c(c1)[C@]13CCCC[C@@H]1[C@H](C2)N(C)CC3	5.8 µM

----------
Biological target: human SERT (Homo sapiens, UniProt P31645)
Sequence (P31645 whole entry): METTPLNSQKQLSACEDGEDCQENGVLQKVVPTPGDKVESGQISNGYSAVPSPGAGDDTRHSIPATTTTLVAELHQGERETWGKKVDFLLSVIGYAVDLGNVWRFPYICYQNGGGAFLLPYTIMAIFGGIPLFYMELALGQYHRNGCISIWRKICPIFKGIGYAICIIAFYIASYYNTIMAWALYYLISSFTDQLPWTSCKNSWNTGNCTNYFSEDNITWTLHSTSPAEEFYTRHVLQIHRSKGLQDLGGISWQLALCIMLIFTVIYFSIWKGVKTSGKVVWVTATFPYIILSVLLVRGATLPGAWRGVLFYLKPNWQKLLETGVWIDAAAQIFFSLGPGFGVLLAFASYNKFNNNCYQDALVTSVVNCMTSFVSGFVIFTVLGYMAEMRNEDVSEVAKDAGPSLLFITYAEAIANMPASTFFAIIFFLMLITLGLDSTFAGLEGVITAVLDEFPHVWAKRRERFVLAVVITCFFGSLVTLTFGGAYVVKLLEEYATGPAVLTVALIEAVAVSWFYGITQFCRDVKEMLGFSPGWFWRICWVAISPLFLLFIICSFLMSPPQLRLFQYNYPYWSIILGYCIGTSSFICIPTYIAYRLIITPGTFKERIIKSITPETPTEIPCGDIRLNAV
Test: cell-based
pIC50: −log10 of the molar value.
Quick list: pIC50 per entry.
value_type: pIC50

compound	value_type	observed
CCC(=O)C(CC(C)N(C)C)(c1ccccc1)c1ccccc1 (stereo not drawn)	pIC50	6.64
CC[C@@H](c1cccc(O)c1)[C@@H](C)CN(C)C	pIC50	5.48
CC(=O)O[C@H]1C=C[C@H]2[C@H]3Cc4ccc(O)c5c4[C@@]2(CCN3C)[C@H]1O5	pIC50	< 4.00
CC(=O)Oc1ccc2c3c1O[C@H]1[C@@H](OC(C)=O)C=C[C@H]4[C@@H](C2)N(C)CC[C@@]341	pIC50	< 4.00
COc1ccc2c3c1O[C@H]1[C@@H](O)C=C[C@H]4[C@@H](C2)N(C)CC[C@@]341	pIC50	< 4.00
COc1ccc2c3c1O[C@H]1[C@@H](O)CC[C@H]4[C@@H](C2)N(C)CC[C@@]341 [Dihydrocodeine]	pIC50	< 4.00
COc1ccc2c3c1O[C@H]1C(=O)CC[C@H]4[C@@H](C2)N(C)CC[C@]314 [Hydrocodone]	pIC50	< 4.00
CN1CC[C@]23c4c5ccc(O)c4O[C@H]2C(=O)CC[C@@]3(O)[C@H]1C5	pIC50	< 4.00
COc1ccc2c3c1O[C@H]1C(=O)CC[C@@]4(O)[C@@H](C2)N(C)CC[C@]314	pIC50	< 4.00
